# Tested on: BDF1 mice, B16 melanoma ip, median survival T/C
# test: NCI In Vivo Anticancer Drug Screen. Data for tumor model B16 Melanoma (intraperitoneal) in B6D2F1 (BDF1) mice
# measurement_conditions: endpoint: median survival time; dose: 8.0 mg/kg/injection; schedule: Q01DX009 (ip); vehicle: Klucel (hydroxypropylcellulose) (HPC); higher = longer survival
Inconclusive results and toxic doses are left out.
experimental_endpoint: T/C

Input line: Given the entry `O=C1c2ccccc2C(=O)c2c(NCCCCCO)ccc(NCCCCCO)c21` , what T/C was observed with BDF1 mice, B16 melanoma ip, median survival T/C?
Output line: 99 % of control

Input line: What is its T/C for BDF1 mice, B16 melanoma ip, median survival T/C? Entry: `NC(=O)c1cc([N+](=O)[O-])c(Cl)c([N+](=O)[O-])c1Cl`
Output line: 92 % of control

Input line: Form field - read-out: T/C; system: BDF1 mice, B16 melanoma ip, median survival T/C; submitted item: `CCc1nc(N)nc(N)c1-c1ccc(Cl)cc1`
Output line: 95 % of control

Input line: Kindly state the measured T/C obtained for O=C1CC(c2ccc(OCN(CCCl)CCCl)cc2)CC(=O)C1CN(CCCl)CCCl (centres undefined) with BDF1 mice, B16 melanoma ip, median survival T/C.
Output line: 104 % of control
